Assay: qHTS of pediatric cancer cell lines to identify multiple opportunities for drug repurposing: Primary screen for A673 cells (AID 1347092); also: nearly all actives have a fitted effect of over 45% in size
Settings: A673 Ewing sarcoma viability, CellTiter-Glo ATP luminescence, 48 h; series mostly up to 46 µM
Method: Drug repurposing or repositioning has been offered as a strategy for drug development in oncology programs. […] We employed a titration-based paradigm (quantitative high-throughput screening or qHTS), where all compounds were tested at multiple concentrations for their effect on cell viability. […] Shen, M et al. Quantitative high-throughput phenotypic screening of pediatric cancer cell lines identifies multiple opportunities for drug repurposing. […]
Results filed as inconclusive are left out. Activity calls are given as the source filed them. Calls follow the shape of the dose curve; as a rule, active = well fitted cell-killing curve with a large enough effect; inconclusive = small, poorly fitted or top-dose-only effect; inactive = no such curve, though single readings can be large or run the other way.
Labels: y = active, n = inactive

compound=Cc1ccc(NC(=O)Nc2cc(C(F)(F)F)ccc2F)cc1Nc1ccc2c(c1)NC(=O)C2=Cc1ccc[nH]1 cat=y
compound=CC[C@H](CC#N)OC(=O)N[C@@H](C)c1cccc(NC(=O)Nc2ccc(-c3cnco3)c(OC)c2)c1 cat=y
compound=CN(C)CCOc1ccc(C(=C(CCCl)c2ccccc2)c2ccccc2)cc1 cat=n
compound=CNC(=O)[C@H](CC1=CN=C2C=CCC=C12)NC(=O)[C@@H](CC(=O)NO)CC(C)C cat=y
compound=NC(N)=Nc1nc(CSCCC(N)=NS(N)(=O)=O)cs1 cat=y
compound=O=C(C=Cc1ccc(O)cc1)c1ccc(O)cc1O cat=y
compound=C[C@@]1(c2cc(-c3cncnc3)c(F)cc2F)CCSC(N)=N1 cat=y
compound=CCCCOCCOc1nc(-c2ccc(C(=O)O)c(F)c2)sc1C cat=n
compound=CC(C)(C)c1[nH]cnc1C=c1[nH]c(=O)c(=Cc2ccccc2)[nH]c1=O cat=y
compound=CCC=CC[C@H]1C(=O)CC[C@@H]1CC(=O)OC cat=n
compound=Cc1ccc(S(=O)(=O)Nc2nc3ccccc3nc2Nc2ccc3nsnc3c2)cc1 cat=y
compound="CN1CC(=O)N2C(Cc3c([nH]c4ccccc34)[C@H]2c2ccc3c(c2)OCO3)C1=O (some centres not stated)" cat=n

---

experiment: P-glycoprotein substrates identified in KB-8-5-11 adenocarcinoma cell line, qHTS therapeutic library screen (AID 1346987); conditions: KB-8-5-11 (P-gp overexpressing) viability, CellTiter-Glo, 72 h; series mostly up to 44.5 µM; also: nearly all actives have a fitted effect of over 65% in size
Records with an inconclusive call do not appear. Calls of active or inactive are those of the source. Calls follow the shape of the dose curve; as a rule, active = well fitted inhibition curve with a large enough effect; inconclusive = small, poorly fitted or top-dose-only effect; inactive = flat fitted curve, though single readings scatter.
Labels: 1 = active, -1 = inactive

compound=Cc1ccc2c(=O)c3cccc(CC(=O)O)c3oc2c1C cat=-1
compound=O=C(c1ccc(C(=O)N2CCC(N3CCCC3)CC2)c(Nc2ccccc2)c1)N1CCC(N2CCCC2)CC1 cat=-1
compound="CCCCN(CCCC)CC(O)c1cc(Cl)cc2c1-c1ccc(Cl)cc1C2=Cc1ccc(Cl)cc1 (stereo not given)" cat=-1
compound=COc1ccc2c(c1)c(C1=C(c3c[nH]c4ccccc34)C(=O)NC1=O)cn2CCCN(C)C cat=-1
compound=Cc1cc(CS(=O)(=O)c2ccccc2)cc(OCc2ccc(CN3CCC[C@H]3CO)cc2)c1 cat=1

---

experiment: qHTS of pediatric cancer cell lines to identify multiple opportunities for drug repurposing: Primary screen for DAOY cells (AID 1347090); conditions: DAOY medulloblastoma viability, CellTiter-Glo luminescence, 48 h; series mostly up to 46 µM; also: nearly all actives have a fitted effect of over 55% in size
Records with an inconclusive call do not appear. Calls of active or inactive are those of the source. The call rests on the fitted dose curve; in most records, active means well fitted cell-killing curve with a large enough effect; inconclusive means small, poorly fitted or top-dose-only effect; inactive means flat fitted curve, though single readings scatter.
Labels: active, inactive

molecule=CN(C)CCOc1ccc(C(=C(CCCl)c2ccccc2)c2ccccc2)cc1 cat=inactive
molecule=CCCCC[C@H](O)C=C[C@H]1[C@H](O)CC(=O)[C@H]1CC=CCCCC(=O)O cat=inactive
molecule=CN(C)c1ccc(-c2nc3ncc(Cl)c(N4CCN(CC(=O)Nc5nccs5)CC4)c3[nH]2)cc1 cat=inactive
molecule=COC(=O)N1CCN(Cc2cccc(NC(=O)Nc3ccc(C)nc3)c2F)CC1 cat=inactive
molecule=COc1cc(N2CCN(C)CC2)ccc1Nc1nc(N)c(C(=O)c2c(Cl)cccc2Cl)s1 cat=inactive
molecule=Fc1ccc(C(c2ccc(F)cc2)N2CCN(CC=Cc3ccccc3)CC2)cc1 cat=inactive
molecule=Cc1cccc2c1CC[C@H](CN1CCC(c3c(Cl)cccc3Cl)CC1)C[C@@H]2O cat=inactive
molecule="O=C(O)C1=NC(C(=O)O)CC(C=CN2c3cc(O)c(OC4OC(CO)C(O)C(O)C4O)cc3CC2C(=O)O)=C1 (stereo not drawn)" cat=inactive
molecule="CN1C(=O)C(Cc2c[nH]c3ccccc23)NC1=S (stereo not drawn)" cat=inactive
molecule="CN(C)CCOc1cc(-c2cn[nH]c2)ccc1NC(=O)C1COc2ccccc2O1 (stereo not drawn)" cat=inactive
molecule="COc1cccc(OC)c1-c1cc(C(=O)NC2(C(=O)O)C3CC4CC(C3)CC2C4)nn1-c1ccnc2cc(Cl)ccc12 (stereo not drawn)" cat=inactive
molecule=CN1CCN(c2ncc(-c3cc(Cl)cc(Cl)c3Cl)c(N)n2)CC1 cat=inactive
molecule=CN(C)c1nc(Cc2ccc(NC(=O)c3ccc(C(F)(F)F)cc3)cc2)nc(N(C)C)c1CC(=O)O cat=inactive
molecule="CCC(c1ccc(O)cc1)C(CC)c1ccc(O)cc1 (stereo not drawn)" cat=active
molecule=Cc1cnc(Nc2cccc(CN3CCOCC3)c2)nc1Nc1cccc(S(=O)(=O)NC(C)(C)C)c1 cat=active
molecule=C[C@H](CCC(=O)O)[C@H]1CC[C@H]2[C@H]3[C@@H](CC[C@]12C)[C@@]1(C)CC[C@@H](O)C[C@H]1C[C@@H]3O cat=inactive
molecule=CCC(=O)OCC(=O)[C@@]1(OC(=O)CC)[C@@H](C)C[C@@H]2[C@H]3CCC4=CC(=O)C=C[C@]4(C)[C@@]3(F)[C@@H](O)C[C@@]21C cat=active
molecule=CC[C@]1(O)C[C@H]2CN(CCC3=c4ccccc4=N[C]3[C@@](C(=O)OC)(c3cc4c(cc3OC)N(C)[C@H]3[C@@](O)(C(N)=O)[C@H](O)[C@]5(CC)C=CCN6CC[C@]43[C@@H]65)C2)C1 cat=active
